Test system: mAb CHO-131
assay.protocol: Glycan microarray analysis (Consortium for Functional Glycomics, printed array version 4.0), glycan binding of mAb CHO-131
condition.context: mAb CHO-131 at 50 μg/ml; average RFU of 6 replicates after removal of highest and lowest values
value.kind: RFU (RFU)
Form entry: value (RFU) — number only.

Consider the reported RFU for these molecules:
[
  {
    "molecule": "CC(=O)N[C@H]1[C@H](OCCN)O[C@H](CO)[C@@H](O[C@@H]2O[C@H](CO)[C@H](O)[C@H](O[C@]3(C(=O)O)C[C@H](O)[C@@H](NC(C)=O)[C@H]([C@H](O)[C@H](O)COC(C)=O)O3)[C@H]2O)[C@@H]1O",
    "result": 271
  },
  {
    "molecule": "CC(=O)N[C@H]1[C@H](OCCN)O[C@H](CO)[C@@H](O[C@@H]2O[C@H](COS(=O)(=O)O)[C@H](OS(=O)(=O)O)[C@H](O)[C@H]2O)[C@@H]1O",
    "result": 427
  },
  {
    "molecule": "CC(=O)NC1C(OCCCN)OC(CO)C(OC2OC(COS(=O)(=O)O)C(O)C(OC3(C(=O)O)CC(O)C(NC(C)=O)C(C(O)C(O)CO)O3)C2O)C1O (centres unmarked)",
    "result": 22706
  },
  {
    "molecule": "CC(=O)NC1C(OCCCN)OC(CO)C(O)C1OC1OC(C(=O)O)C(O)C(O)C1O (centres unmarked)",
    "result": 5434
  },
  {
    "molecule": "CC(=O)NC1C(OCCN)OC(CO)C(OC2OC(CO)C(O)C(OC3(C(=O)O)CC(O)C(NC(=O)CO)C(C(O)C(O)CO)O3)C2O)C1OC1OC(C)C(O)C(O)C1O (centres unmarked)",
    "result": 9521
  }
]

// next item, RFU requested
Task: Sample "NCCO[C@@H]1O[C@H](COS(=O)(=O)O)[C@@H](O[C@@H]2O[C@H](CO)[C@H](O)[C@H](O)[C@H]2O)[C@H](O)[C@H]1O" — what was its RFU?
Output: 148

----------
Test system: mAb CSLEX
assay.protocol: Glycan microarray analysis (Consortium for Functional Glycomics, printed array version 4.0), glycan binding of mAb CSLEX
condition.context: mAb CSLEX at 50 μg/ml; average RFU of 6 replicates after removal of highest and lowest values
value.kind: RFU (RFU)
Form entry: value (RFU) — number only.

Consider the reported RFU for these compounds:
[
  {
    "compound": "CC(=O)N[C@H]1[C@@H](OCCCN)O[C@H](CO[C@@H]2O[C@H](CO)[C@@H](O)[C@H](O)[C@H]2NC(C)=O)[C@H](O[C@@H]2O[C@H](CO)[C@@H](O)[C@H](O)[C@H]2NC(C)=O)[C@@H]1O [compound 177]",
    "RFU [RFU]": 29
  },
  {
    "compound": "CC(=O)NC1C(OCCCN)OC(COC2(C(=O)O)CC(O)C(NC(C)=O)C(C(O)C(O)CO)O2)C(O)C1O (stereo not shown) [compound 267]",
    "RFU [RFU]": 29
  },
  {
    "compound": "CC(=O)NC1C(O)CC(OC2C(O)C(CO)OC(OC3C(CO)OC(OC4C(O)C(CO)OC(OCCCN)C4O)C(NC(C)=O)C3OC3OC(C)C(O)C(O)C3O)C2O)(C(=O)O)OC1C(O)C(O)CO (stereo not shown) [compound 245]",
    "RFU [RFU]": 22997
  }
]

Task: Sample CC(=O)NC1C(OCCCN)OC(CO)C(OC2OC(COS(=O)(=O)O)C(O)C(OC3(C(=O)O)CC(O)C(NC(C)=O)C(C(O)C(O)CO)O3)C2O)C1O (stereo not shown) [compound 43] — what was its RFU?
Output: 12653

Task: Sample CC(=O)N[C@H]1[C@H](OCCN)O[C@H](CO)[C@@H](O[C@@H]2O[C@H](CO[C@H]3O[C@H](CO)[C@@H](O[C@@H]4O[C@H](CO)[C@H](O)[C@H](O)[C@H]4O)[C@H](O)[C@H]3NC(C)=O)[C@H](O)[C@H](O)[C@H]2O)[C@@H]1O [compound 295] — what was its RFU?
Output: 30

Task: Sample CC(=O)NC1C(O)CC(OC2C(O)C(OC3C(CO)OC(OCCN)C(O)C3O)OC(CO)C2OC2OC(CO)C(O)C(OC3OC(CO)C(O)C(O)C3O)C2NC(C)=O)(C(=O)O)OC1C(O)C(O)CO (stereo not shown) [compound 135] — what was its RFU?
Output: 28
